Hello, the source for this data is PubChem BioAssay (NCI), in case you need it.

growth inhibition listing for selected compounds.
test: NCI Yeast Anticancer Drug Screen. Data for the mlh1 strain (AID 171);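 further: 0% = growth of vehicle-treated control cultures of the same strain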; conditions: S. cerevisiae mlh1 strain growth inhibition; at 1.2 µM; stronger effect = higher value
About 79,000 compounds went through this panel and 15% of them were active in at least one assay; those are over-represented in the sample as a whole.

| COMPOUND | UNITS | growth inhibition |
| --- | --- | --- |
| CSC(=S)N/N=C(\C)c1cccc(C)n1 | % | -11 |
| CCCCCCCCCCCCCCCCCCNC | % | -26 |
| O=[N+]([O-])C(=C(Sc1ccccc1)Sc1ccccc1)C(Cl)=C(Cl)Cl | % | 8 |
| CCNc1nnc(CSc2nc(-c3ccccc3)c(-c3ccccc3)[nH]2)s1 | % | 3 |
| CCCS(=O)(=O)Nc1ccc(Nc2c3ccccc3nc3ccccc23)c(OC)c1 | % | -85 |
| S=C(N/N=C/c1ccccn1)Nc1ccc(Cl)cc1 | % | -5 |
| O=C(N=Nc1ccccc1Cl)NNc1ccccc1Cl | % | 0 |
| C#CCCCc1ccccc1 | % | -20 |
| CC/C(=C(\c1ccccc1)c1ccc(OCCN(C)C)cc1)c1ccccc1 | % | -3 |
| CCCCCCc1cc(C(=O)OC/C(C)=N/NC(N)=O)c2ccccc2n1 | % | -3 |
| O=[N+]([O-])c1cccc([N+](=O)[O-])c1S(=O)(=O)c1ccccc1 | % | -1 |
| CN(C)c1ccc(C(C#N)=C(C#N)C#N)cc1 | % | 6 |
| O=C(/C=C/c1cccc(Br)c1)c1cccs1 | % | 9 |
| Cc1ccc2[nH]c3c(C)c4cc[n+](C)cc4c(C)c3c2c1 | % | 7 |
| Cc1nn(-c2cc(Cl)ccc2[N+](=O)[O-])c(C)c1Cl | % | 0 |
| O=C(O)c1cccc(-c2c3ccc(=O)cc-3oc3cc(O)ccc23)c1 | % | -23 |
| OCC(Cn1cncn1)(c1ccc(F)cc1F)n1cncn1 (centres undefined) | % | 22 |
| O=C1NC(=O)C2C3C=CC(C3)C12 (centres undefined) | % | 1 |
| CCCCCCCCCCCCCCCCCCN(C)CC(COP(=O)([O-])OCC[N+](C)(C)C)OC (centres undefined) | % | 5 |
| CN(C)c1ccc(Sc2ccc3nc(N)nc(N)c3c2)cc1 | % | -4 |
| c1ccc2c(c1)-c1nc3ccccc3cc1C2N1CCOCC1 (centres undefined) | % | 3 |
| COc1cc(C(=O)/C=C/c2ccccc2O)ccc1O | % | 1 |
| NNc1c(F)c(F)cc(F)c1F | % | -12 |
| CN(C)C[C@H]1CC[C@@H](CN(C)C)C1=O | % | 18 |
| CC(=O)ON1C(=O)c2cccc3cccc(c23)C1=O | % | 61 |
| COc1ccc2nc3c([N+](=O)[O-])ccc(NCCN(C)C)c3c(NCCN(C)C)c2c1 | % | -1 |
| N#CC(C(=O)Nc1ccccc1)C1=C(Cl)C(=O)c2ccccc2C1=O (centres undefined) | % | -3 |
| CC(C)[N+]([O-])(CCCNc1c2ccccc2nc2cccc([N+](=O)[O-])c12)C(C)C | % | 3 |
| CCOC(=O)c1cc(-c2ccc(Cl)cc2)c([N+](=O)[O-])n1C | % | 28 |
| [N-]=[N+]=NC1=C(c2ccccn2)C(=O)c2cccc3cccc1c23 | % | 4 |
| CCCC/C=C/C(CC)(C(=O)OCC)C(=O)OCC | % | -3 |
| CCCCCCCC1(N=[N+]=[N-])C(=O)c2ccccc2N(C)C1=O (centres undefined) | % | 20 |
| CNC(=O)OCc1c(COC(=O)NC)c(-c2ccc(Cl)c(Cl)c2)n2c1CCC2 | % | -94 |
| Cc1nc(-[n+]2nc(-c3ccncc3)nn2-c2ccccc2)sc1C | % | -2 |
| S=C(S)NN1CCOCC1 | % | 63 |
| Cc1ccc(Nc2nc3c(=O)n(C)c(=O)n(C)c3nc2Nc2ccc(C)cc2)cc1 | % | 0 |
| O=C(O)c1ccccc1-c1ccccc1C(=O)Nc1ccc2c(c1)Cc1ccccc1-2 | % | 7 |
| O=[N+]([O-])CC(SCc1ccccc1)c1ccc2c(c1)OCO2 (centres undefined) | % | 17 |
| O=[N+]([O-])c1ccc([N+]2=NC(c3ccccc3)=NN(c3ccccc3)C2)cc1 | % | 1 |
| CCCCCCCCNC(=O)C1=C(C)NC(C)=C(C(=O)NCCCCCCCC)C1 | % | 0 |
| O=C1OC(=O)C2CCCC3CCCC1C32 (centres undefined) | % | 44 |
| Cn1ccnc1Oc1ccc(Cl)cc1 | % | -11 |
| COc1ccccc1C(=O)OCC1CCCN2CCCCC12 (centres undefined) | % | 23 |
| Nc1ccccc1CC(O)C(=O)O (centres undefined) | % | 2 |
| O=[N+]([O-])c1ccc(=S)[nH]c1 | % | 0 |
| COc1ccc2ccc3ccccc3c2c1C=O | % | -6 |
| COC(=O)c1ccc([N+](=O)[O-])c(O)c1 | % | -4 |
| OC1(c2ccccc2)CSC2=Nc3ccccc3C3CCN1N23 (centres undefined) | % | -81 |
| CSc1nc(=S)[nH]c2c1c(C)nn2-c1ccccc1 | % | 11 |

###

experiment: NCI Yeast Anticancer Drug Screen. Data for the mec2-1 strain (AID 157); conditions: S. cerevisiae mec2-1 strain, at 11.0 µM, stronger effect = higher value
This is part of a sample that, as a whole, favours compounds with a hit. Of some 79,000 tested, about 15% had one in any assay.
growth inhibition listing for selected molecules.
MEASUREMENT TYPE: growth inhibition (%)

| MOLECULE | RESULT NUMBER |
| --- | --- |
| COc1ccc(C2c3cc4c(cc3OC(C)(O)C2C)OCO4)c(OC)c1 (stereo not given) | 9 |
| Oc1ccc(NCn2c(=S)sc3ccccc32)cc1 | 26 |
| CCC(C(=O)O)C1=C(c2ccccc2)CCc2ccccc21 (stereo not given) | 95 |
| S=C(Nc1ccc(Cl)c(Cl)c1)SCc1ccc2c(c1)OCO2 | 100 |
| O=[N+]([O-])c1cccc2nccc(NCCCO)c12 | -3 |
| CC1(C)[C@@H]2CC[C@]1(C)[C@H](OC(=O)CSC#N)C2 | 27 |
| CCCCCCCCCCCCCCCCCCNC | -3 |
| [O-][n+]1c2ccc(O)cc2nc2ccc(Br)cc21 | 25 |
| COC(=O)CSSCc1ccc([N+](=O)[O-])cc1 | 14 |
| CCOC(=O)c1cnc2c(C(F)(F)F)cccc2c1N=[N+]=[N-] | -4 |
| COc1cc2c3c(cccc3c1)C(=O)N(CCN(C)C)C2=O | -23 |
| Nc1ncncc1C(C1=C(O)COC1=O)C1=C(O)COC1=O | 8 |
| COc1ccc(/C(C)=N/OC(=O)c2c(-c3ccccc3Cl)noc2C)cc1CN1CCOCC1 | -12 |
| COC(=O)c1ccc(CCC2=CC(=O)C(Br)=CC2=O)cc1 | -12 |
| CC(C)/C(Cl)=N\OC(=O)Nc1ccc(F)cc1 | 13 |
| CCN(CC)[P+](c1ccccc1O)(N(CC)CC)N(CC)CC | 29 |
| O=C(c1ccc(Cl)cc1)C1OC12C(=O)Nc1ccccc12 (stereo not given) | 99 |
| O=[N+]([O-])c1ccc2nc3ccccc3cc2c1 | 8 |
| CCOC(=O)[C@H]1Nc2ccccc2C2c3ccccc3CC21 (stereo not given in full) | 21 |
| O=C1C=CC(=Nc2ccc3c(c2)Cc2cc(NC(=O)C(F)(F)F)ccc2-3)O1 | 28 |
| OC1CCCc2c1cc1ccc3cccc4ccc2c1c34 (stereo not given) | 99 |
| O=C(O)CNc1ccc(Cl)c(Cl)c1 | -8 |
| O=C(CC(=O)n1nc(-c2ccccc2)c(N=Nc2ccccc2C(=O)O)c1-c1ccccc1)Nc1ccc(Cl)cc1 | -2 |
| C[C@@H]1C[C@H]2[C@@H]3CCC4=CC(=O)C=C[C@]4(C)[C@@]3(Cl)[C@@H](Cl)C[C@]2(C)[C@@]1(O)C(=O)COP(=O)(O)O | 0 |
| COc1ccc2sc3cccc(NCCN(C)C)c3c(=O)c2c1 | 6 |
| N#Cc1ccc(C2NN=CC23C(=O)c2ccccc2OC3c2ccccc2)cc1 (stereo not given) | -3 |
| Cc1cc(N=Nc2ccc(S(=O)(=O)[O-])cc2)cc(C(=O)[O-])c1[O-].NC1CCCCC1N.[Na+].[Pt+4] | 99 |
| N#CN1C2CCC1CC(=O)C2 | -54 |
| C(=C\c1ccccc1)/COc1ccccc1C(N1CCOCC1)n1nc2ccccc2n1 (stereo not given) | -1 |
| O=C1C=CC(=O)N1c1ccc2c(c1)Cc1cc(NC(=O)C(F)(F)F)ccc1-2 | 42 |
| O=C(/C=C\c1ccc(Cl)cc1Cl)c1cccs1 | 1 |
| O=C(Nc1ccccc1)OCCc1ccc(Cl)c(Cl)c1 | -3 |
| Cc1ccc(Cl)c2[nH]c(-c3ccccc3)cc(=O)c12 | 0 |
| CC(=O)OCCOCNC(=S)N/N=C(\C)c1cnccn1 | -2 |
| CC(C)c1cc(C(C)C)c(O)c(C([O-])[O-])c1.CC(C)c1cc(C(C)C)c(O)c(C([O-])[O-])c1.CC(C)c1cc(C(C)C)c(O)c(C([OH2+])[OH2+])c1.CC(C)c1cc(C(C)C)c(O)c(C([OH2+])[OH2+])c1.[Cu+2].[Cu+2].[OH3+].[OH3+] | 36 |
| O=Nc1c(NO)ccc2nn(-c3ccccc3)nc12 | 95 |
| C/C(=N\O)C1CC2C=C(C#N)C1N(Cc1ccccc1)C2 (stereo not given) | 4 |
| [N-]=[N+]=NC1=C(c2ccccn2)C(=O)c2cccc3cccc1c23 | 14 |
| CCN(CC)CC(O)c1ccc2ccc3ccccc3c2c1 (stereo not given) | 11 |
| O=C(c1cc(Br)ccc1O)c1cc(Br)ccc1O | 99 |
| OC1(c2ccccc2)CSC2=Nc3ccccc3C3CCN1N23 (stereo not given) | -91 |
| O=C1c2ccccc2C(=O)c2cc(CBr)ccc21 | 5 |
| Cc1ccc(NC(=O)/C(Cl)=C(\Cl)C(=O)O)cc1C | 24 |
| COc1ccc(OC)c2cc3ccccc3cc12 | -6 |
| O=CNc1ccc2c(c1)C(=O)c1ccccc1-2 | 3 |
